- Tested on: transactivating tegument protein VP16 (Human herpesvirus 1)
- assay_notes: VP16 transactivation reporter inhibitors, counter-screen for SRC2 inhibitor project, cell-based, luminescence, single concentration (AID 652007)
- test_context: cell-based VP16 transactivation luciferase reporter, at 8.9 µM, active compounds read high
quantity_name: inhibition (%)
Answer with a number only, understood to be in %.

compound	quantity_name	unit_label	val
C=C1C(=O)[C@@]23[C@H](O)C[C@@H]4C(C)(C)CC[C@H](O)[C@@]4(C)[C@@H]2CC[C@@H]1[C@H]3O	inhibition	%	33.9
COCCn1c(C)cc(C(=O)COc2ccc(C)nc2[N+](=O)[O-])c1C	inhibition	%	23.8
O=C(COc1ccc2c(c1)CCC2)Nc1ccccn1	inhibition	%	2.76
Cc1cccc(Nc2ncnc3ccc(Br)cc23)c1	inhibition	%	0.23

Given item CCCN(CC(=O)Nc1ccccc1C)C(=O)CCl , the value recorded as its inhibition is 65.6

Given item CCc1ccn2cc(-c3cc(-c4ccccc4)no3)nc2c1 , the value recorded as its inhibition is 36.5

Given item CN1CCN(S(=O)(=O)c2cccc(C(=O)Nc3ccc(Br)cc3Br)c2)CC1 , the value recorded as its inhibition is 12.2

Given item CNc1cccnc1C=NNC(N)=S , the value recorded as its inhibition is -4.08

Given item O=c1[nH][nH]c(-c2ccccc2O)c1C(C[N+](=O)[O-])c1ccc(Br)cc1 (stereo unspecified) , the value recorded as its inhibition is 24.3

Given item CCCC(=O)NC(c1ccc(Cl)cc1Cl)c1ccc2cccnc2c1O (stereo unspecified) , the value recorded as its inhibition is 0.83

Given item Cc1ccc(-c2nc(-c3ccccn3)no2)cc1Cl , the value recorded as its inhibition is 11.8

Given item CC(C)(C)C(=O)Nc1ccc(N=Nc2ccccc2)cc1 , the value recorded as its inhibition is 54.7

Given item CCCC(=O)N1CCN(c2ccc(NC(=O)c3cc4ccccc4o3)cc2Cl)CC1 , the value recorded as its inhibition is 35.5

Given item O=S(=O)(Nc1cc(Sc2ncn[nH]2)c(O)c2ccccc12)c1ccccc1 , the value recorded as its inhibition is 16.2

Given item COc1ccc(-c2cncnc2-c2ccc(OC)cc2O)cc1 , the value recorded as its inhibition is 14.3

Given item O=C(CSc1nc(N2CCOCC2)nc(N2CCOCC2)n1)Nc1ccccc1F , the value recorded as its inhibition is 1.31

Given item COc1ccccc1C(C)NC(=O)C1CCN(S(=O)(=O)c2cccs2)CC1 (stereo unspecified) , the value recorded as its inhibition is -3.74

Given item COc1cc(/C=C/C(=O)c2ccc(C)cc2)ccc1OCC#N , the value recorded as its inhibition is 28
